- Target desc: actin (Example II solid-phase assay and BIAcore; source not stated) (Oryctolagus cuniculus (Rabbit), UniProt P68135 3-377)
- Run description: SPR, BIAcore 3000, actin amine-coupled to CM5 chip; column heads taken as printed
- Procedure: SPR was performed on a BIAcore 3000 instrument (BIAcore, Uppsala, Sweden). […] The association phase for protein or peptides binding to actin was followed for 4 min, and dissociation phases were monitored for 3 min. […] The response was monitored as a function of time (sensorgram) at 25° C. […]
Where no end group is shown, it is not given here.
Measure: koff

KKYFGRSLELYRELDLNSVLLKLGIK (not fully specified, Synthetic 26 aa peptide of human RNASET2 (helix 5 and 6), tested free in solution in ELISA and SPR; also called 22B; T2 peptide) [peptide K108-K133]; 0.0458 s⁻¹
peptide A103-Q159 (Synthetic peptide of human RNASET2, tested free in solution; also called 22A) peptide: ALNSQKKYFGRSLELYRELDLNSVLLKLGIKPSINYYQVADFKDALARVYGVIPKIQ; 3.04 s⁻¹
trT2-49m polypeptide (other) EGCNRSWPFNLEEIKDLLPEMRAYWPDVIHSFPNRSRFWKHEWEKHGTCAAQVDALNSQKKYFGRSLELYRADFKDALARVYGVIPKIQCLPPSQDEEVQTIGQIELCLTKQDQQLQNCTEPGEQPSPKQEVWLANGAAESRGLRVCEDGPVFYPPPKKTKH; 0.00969 s⁻¹
truncated RNASET2 polypeptide trT2-49 (other, Described as amino acids 49-232 of full length, native RNASET2; also called truncated T2 polypeptide) EGCNRSWPFNLEEIKDLLPEMRAYWPDVIHSFPNRSRFWKHEWEKHGTCAAQVDALNSQKKYFGRSLELYRELDLNSVLLKLGIKPSINYYQVADFKDALARVYGVIPKIQCLPPSQDEEVQTIGQIELCLTKQDQQLQNCTEPGEQPSPKQEVWLANGAAESRGLRVCEDGPVFYPPPKKTKH; 0.0132 s⁻¹
